Biological target: CSF1R phosphorylation in THP-1 cells (Homo sapiens (Human), UniProt P07333)
Sequence (P07333 20-972): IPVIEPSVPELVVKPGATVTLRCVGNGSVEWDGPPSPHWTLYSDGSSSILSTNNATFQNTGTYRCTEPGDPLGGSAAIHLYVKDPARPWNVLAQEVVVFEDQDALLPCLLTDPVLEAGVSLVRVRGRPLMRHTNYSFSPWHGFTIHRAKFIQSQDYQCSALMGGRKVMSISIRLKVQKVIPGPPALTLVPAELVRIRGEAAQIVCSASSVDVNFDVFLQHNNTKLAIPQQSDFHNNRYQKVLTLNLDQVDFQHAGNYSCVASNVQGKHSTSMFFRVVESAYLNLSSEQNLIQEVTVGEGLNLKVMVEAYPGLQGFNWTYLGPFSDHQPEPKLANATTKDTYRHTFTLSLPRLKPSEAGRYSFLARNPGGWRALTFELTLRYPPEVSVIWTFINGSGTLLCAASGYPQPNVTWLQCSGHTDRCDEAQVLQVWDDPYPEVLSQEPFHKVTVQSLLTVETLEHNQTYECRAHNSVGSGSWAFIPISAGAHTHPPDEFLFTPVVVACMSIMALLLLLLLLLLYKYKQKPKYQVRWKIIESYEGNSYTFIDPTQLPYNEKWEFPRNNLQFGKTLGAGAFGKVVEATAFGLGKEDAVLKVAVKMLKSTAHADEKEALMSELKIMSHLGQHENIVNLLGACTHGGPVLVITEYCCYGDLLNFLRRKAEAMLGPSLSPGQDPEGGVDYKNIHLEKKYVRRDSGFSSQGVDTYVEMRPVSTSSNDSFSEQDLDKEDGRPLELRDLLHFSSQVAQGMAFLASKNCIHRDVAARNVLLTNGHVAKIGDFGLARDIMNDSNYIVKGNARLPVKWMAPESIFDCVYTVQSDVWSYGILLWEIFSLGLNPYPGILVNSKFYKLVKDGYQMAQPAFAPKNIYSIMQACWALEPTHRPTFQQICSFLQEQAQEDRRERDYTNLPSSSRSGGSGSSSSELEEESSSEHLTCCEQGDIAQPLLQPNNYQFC
Assay: Detection of CSF1R phosphorylation activity at cell level (p-CSF1R ELISA, M-CSF stimulated THP-1 cells)
Type: cell-based
Details: THP-1 cells, M-CSF stimulation, p-CSF1R ELISA; read-out: IC50
metric: log10 of IC50 (log10 of the value in nM)
// stored as log10 of IC50 expressed in nM

Problem: Sample `COc1ccc([C@@H]2COc3cc(Oc4ccc5ncc(C)c(=O)n5c4)cnc3O2)cc1` — what was its log10 of IC50?
Solution: 1.00

Problem: And then `Cc1cnc2ccc(Oc3cnc4c(c3)OC[C@H](c3ccc(C5CC5)cc3)O4)cn2c1=O` , what is it?
Solution: 1.41

Problem: Next record, please: `Cc1cnc2ccc(Oc3cnc4c(c3)OC[C@H](c3ccc(C5CC5)cn3)O4)cn2c1=O`
Solution: 2.07

Problem: # repeat for `COc1ccc(CCOc2ncc(Oc3ccc4ncc(C)c(=O)n4c3)cc2OC)cc1`
Solution: 2.15

Problem: Then `COc1ccc([C@@H]2COc3cc(Oc4ccnc(-c5cnn(C)c5)c4)cnc3O2)nc1` ?
Solution: 1.11

Problem: Check `Cc1cnc2ccc(Oc3cnc4c(c3)OC[C@@H](c3ccc(C5CC5)cc3)O4)cn2c1=O` too.
Solution: 1.20

Problem: Then what about the compound `Cn1cc(-c2cc(Oc3cnc4c(c3)OC[C@H](c3ccc(C5CC5)cn3)O4)ccn2)cn1` ?
Solution: 1.23

Problem: Now consider `Cn1cc(-c2cc(Oc3cnc4c(c3)OC[C@@H](c3ccc(C5CC5)cn3)O4)ccn2)cn1` .
Solution: 0.95

----------
Exercise: for every item that follows, state its recorded IC50.
Molecular target: CSF1R phosphorylation in THP-1 cells (Homo sapiens (Human), UniProt P07333)
Assay: Detection of CSF1R phosphorylation activity at cell level (p-CSF1R ELISA, M-CSF stimulated THP-1 cells)
Assay type: cell-based
Conditions: THP-1 cells, M-CSF stimulation, p-CSF1R ELISA; read-out: IC50
Write the value in nM as a bare number.

Problem: Using the record for COc1cc(Oc2ccc3ncc(C)c(=O)n3c2)cnc1OCc1ccc(C2CC2F)cc1 (centres unmarked) , report its IC50.
Solution: 17

Problem: What do you get for `Cc1cnc2ccc(Oc3cnc4c(c3)OC[C@@H](c3ccc(C5CC5)nc3)O4)cn2c1=O` ?
Solution: 29

Problem: # iterate: `COc1ccc(COc2ncc(Cc3ccc4ncc(C)c(=O)n4c3)cc2OC)cc1`
Solution: 12

Problem: Queued: `COc1cc(Oc2ccc3ncc(C)c(=O)n3c2)cnc1OCc1ccc(C(C)C)cc1`
Solution: 29

Problem: What do you have for `O=c1ccnc2ccc(Oc3cnc4c(c3)OC[C@H](c3ccc(C5CC5)nc3)O4)cn12` ?
Solution: 52

Problem: Now this one: `COc1cc(Oc2ccnc(-c3cnn(C)c3)c2)cnc1OCc1ccc(C2CC2)cc1`
Solution: 5

Problem: Note, next up: `Cc1cnc2ccc(Oc3cnc4c(c3)OC[C@H](c3ccc(C5CC5)nc3)O4)cn2c1=O`
Solution: 47

Problem: And then Cn1cc(-c2cc(Oc3cnc4c(c3)OCC(c3ccc(C5CC5)cc3)O4)ccn2)cn1 (racemic) [Compound 48] , what is it?
Solution: 5

Problem: And the next one, `Cc1cnc2ccc(Oc3cnc(OCc4ccc(C5CC5)cc4)nc3)cn2c1=O` ?
Solution: 78

Problem: Continue with `COc1ccc(COc2ncc(Oc3ccc4ncc(N)c(=O)n4c3)cc2OC)cc1`
Solution: 4

Problem: What do we get for `COc1ccc([C@@H]2COc3cc(Oc4ccnc(-c5cnn(C)c5)c4)cnc3O2)cc1` ?
Solution: 16

Problem: Thanks! And `COc1cc(Oc2ccc3ncc(C)c(=O)n3c2)cnc1OCc1ccccc1` ?
Solution: 54

Problem: Next compound: `COc1cccc(CCOc2ncc(Oc3ccc4ncc(C)c(=O)n4c3)cc2OC)c1`
Solution: 300

Problem: Another compound: `COc1cc(Oc2ccc3nccc(=O)n3c2)cnc1OCc1ccc(C2CC2)cc1`
Solution: 4

Problem: Entry COc1cc(Oc2ccc3ncc(C)c(=O)n3c2)cnc1OCc1ccc(C2CC2(F)F)cc1 (centres unmarked) please
Solution: 15

Problem: Consider next the compound `COc1cc(Oc2ccc3ncc(C4CC4)c(=O)n3c2)cnc1OCc1ccc(C)cc1` in the same way.
Solution: 56

Problem: Moving on to the next compound: `COc1ccc(COc2ncc(Oc3ccc4ncc(C)c(=O)n4c3)cc2F)cc1`
Solution: 60

----------
Assignment: determine reported IC50 for the given molecules.
Target: CSF1R phosphorylation in THP-1 cells (Homo sapiens (Human), UniProt P07333)
Test: Detection of CSF1R phosphorylation activity at cell level (p-CSF1R ELISA, M-CSF stimulated THP-1 cells)
Assay type: cell-based
Conditions: THP-1 cells, M-CSF stimulation, p-CSF1R ELISA; read-out: IC50
Note: unit nM is implicit; provide only the numeric part.

Problem: Given COc1ccc([C@H]2COc3cc(Oc4ccnc(-c5cnn(C)c5)c4)cnc3O2)nc1 [Compound 81] , state its recorded IC50.
Solution: 32

Problem: Now this one: Cn1cc(-c2cc(Oc3cnc4c(c3)OCC(c3ccc(C5CC5)cc3)O4)ccn2)cn1 (racemic) [Compound 51]
Solution: 6

Problem: Queued: O=c1ccnc2ccc(Oc3cnc4c(c3)OC[C@@H](c3ccc(C5CC5)nc3)O4)cn12 [Compound 59]
Solution: 50

Problem: Let us now turn to COc1cc(Oc2ccc3c(c2)C2=NCCN2C=N3)cnc1OCc1ccc(C2CC2)cc1 [Compound 17]
Solution: 18

----------
Molecular target: CSF1R phosphorylation in THP-1 cells (Homo sapiens (Human), UniProt P07333)
Experiment: Detection of CSF1R phosphorylation activity at cell level (p-CSF1R ELISA, M-CSF stimulated THP-1 cells)
Type: cell-based
Conditions: THP-1 cells, M-CSF stimulation, p-CSF1R ELISA; read-out: IC50
metric: IC50 (µM)
Respond numerically; units are µM and should not be typed.

Problem: What reported IC50 corresponds to `COc1ccc([C@H]2COc3cc(Oc4ccc5nccc(=O)n5c4)cnc3O2)cc1` on CSF1R phosphorylation in THP-1 cells (Homo sapiens (Human), UniProt P07333)?
Solution: 0.042

Problem: Could you do the same for Cn1cc(-c2cc(Oc3cnc4c(c3)O[C@H](c3ccc(C5CC5)cc3)CO4)ccn2)cn1 (single isomer, unassigned) [Compound 49] , please?
Solution: 0.06

Problem: Same again, this time with Cn1cc(-c2cc(Oc3cnc4c(c3)OCC(c3ccc(C5CC5)nc3)O4)ccn2)cn1 (racemic) [Compound 53]
Solution: 0.019

Problem: Check `Cc1cnc2ccc(Oc3cnc(OCc4ccc(Cl)cc4)nc3)cn2c1=O` too.
Solution: 0.551

Problem: Proceed to Cn1cc(-c2cc(Oc3cnc4c(c3)OCC(c3ccc(C5CC5)nc3)O4)ccn2)cn1 (racemic) [Compound 54]
Solution: 0.022

Problem: What would you report for `O=c1ccnc2ccc(Oc3cnc4c(c3)OC[C@@H](c3ccc(C5CC5)cn3)O4)cn12` ?
Solution: 0.032

Problem: Let us now turn to `COc1ccc(COc2ncc(Oc3ccc4ncc(C)c(=O)n4c3)cc2OC)cc1`
Solution: 0.004

Problem: Then what about the molecule `COc1ccc(COc2ncc(Oc3ccc4ncc(C)c(=O)n4c3)cn2)cc1` ?
Solution: 0.023

----------
Give measured pIC50 for each item. Keep answers brief.
Biological target: CSF1R phosphorylation in THP-1 cells (Homo sapiens (Human), UniProt P07333)
Test: Detection of CSF1R phosphorylation activity at cell level (p-CSF1R ELISA, M-CSF stimulated THP-1 cells)
Assay type: cell-based
Conditions: THP-1 cells, M-CSF stimulation, p-CSF1R ELISA; read-out: IC50
// pIC50 is dimensionless: -log10 of concentration (M)

Problem: Please look up its pIC50: OCCn1cc(-c2cc(Oc3cnc4c(c3)OCC(c3ccc(C5CC5)cc3)O4)ccn2)cn1 (centres unmarked)
Solution: 7.47

Problem: Then what about the molecule `COc1cc(Oc2ccc3ncn(C)c(=O)c3c2)cnc1OCc1ccc(C2CC2)cc1` ?
Solution: 8.30

Problem: Another: `COc1cc(Oc2ccc3ncc(N)c(=O)n3c2)cnc1OCc1ccc(C2CC2)cc1`
Solution: 8.05

Problem: Moving on to the next molecule: `O=c1ccnc2ccc(Oc3cnc4c(c3)OC[C@H](c3ccc(C5CC5)cn3)O4)cn12`
Solution: 6.94

Problem: Cool, now `COc1cc(Oc2ccc3ncc(C)c(=O)n3c2)cnc1OCc1ccc(C2CC2)cc1F`
Solution: 6.79

Problem: Would you mind doing `COc1ccc([C@@H]2COc3cc(Oc4ccnc(-c5cnn(C)c5)c4)cnc3O2)cn1` as well?
Solution: 7.77

Problem: And then `COc1cc(Oc2ccc3ncc(C)c(=O)n3c2)cnc1OCc1cccc(Cl)c1` , what is it?
Solution: 6.97

Problem: Same question, Cc1cnc2ccc(Oc3cnc4c(c3)OCC(c3ccc(C5CC5)cc3)O4)cn2c1=O (centres unmarked) this time
Solution: 7.21

The values you see were collected from patent US20240092774A1.
